Numbers sourced from PubChem BioAssay (NCATS).

test-description: Quantitative highthroughput screen to assess conditional lethalithy of NOMO1 cells grown in Human Plasma-Like Medium with dialyzed fetal bovine serum (HPLM+ds) (AID 1963878); further: nearly all actives have a fitted effect of over 35% in size;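 on viability: 100% = DMSO wells and 0% = empty wells on each plate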
settings: NOMO1 AML cells in HPLM+ds, CellTiter-Glo viability, 48 h; series mostly up to 45.8 µM
Records with an inconclusive call do not appear. Calls of active or inactive are those of the source. The call rests on the fitted dose curve; in most records, active means well fitted cell-killing curve with a large enough effect; inconclusive means small, poorly fitted or top-dose-only effect, or effect the other way; inactive means no such curve, though single readings can be large or run the other way.
I would appreciate it if you answered using one of these outcomes: T (active), F (inactive)

-- ask Outcome? COc1ccc2nc3cc(Cl)ccc3c(Nc3cc(CN4CCCC4)c(O)c(CN4CCCC4)c3)c2n1
-- reply F

-- ask Outcome? O=C(O)c1cn(-c2ccc(F)cc2)c2cc(N3CCNCC3)c(F)cc2c1=O
-- reply F

-- ask Outcome? COc1c(N2CCNC(C)C2)c(F)cc2c(=O)c(C(=O)O)cn(C3CC3)c12 (stereo not drawn)
-- reply F

-- ask Outcome? C[C@@H]1CC=CC=CC=CC=C[C@@H](O[C@@H]2O[C@H](C)[C@@H](O)[C@H](N)[C@H]2O)C[C@@H]2O[C@](O)(C[C@@H](O)C[C@@H]3O[C@@H]3C=CC(=O)O1)C[C@H](O)[C@@H]2C(=O)O
-- reply F

-- ask Outcome? Cc1coc2c1C(=O)C(=O)c1c-2ccc2c(C)cccc12
-- reply F

-- ask Outcome? CS[C@H]1SC[C@@H]2C(=O)N(C)[C@H](C(C)C)C(=O)OC[C@H](NC(=O)c3cnc4ccccc4n3)C(=O)N[C@H](C)C(=O)N(C)[C@@H]1C(=O)N(C)[C@H](C(C)C)C(=O)OC[C@H](NC(=O)c1cnc3ccccc3n1)C(=O)N[C@H](C)C(=O)N2C
-- reply T

-- ask Outcome? CC(C=CC(=O)NO)=C[C@@H](C)C(=O)c1ccc(N(C)C)cc1
-- reply T

-- ask Outcome? CNC(=O)c1c(-c2ccc(F)cc2)oc2cc(N(CCO)S(C)(=O)=O)c(C3CC3)cc12
-- reply T

----------
test-description: Quantitative highthroughput screen to assess conditional lethalithy of NOMO1 cells grown in Human Plasma-Like Medium with dialyzed fetal bovine serum (HPLM+ds) (AID 1963878); further: nearly all actives have a fitted effect of over 35% in size;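 on viability: 100% = DMSO wells and 0% = empty wells on each plate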
settings: NOMO1 AML cells in HPLM+ds, CellTiter-Glo viability, 48 h; series mostly up to 45.8 µM
Records with an inconclusive call do not appear. Activity calls are given as the source filed them. Calls come from the whole dose curve; as a rule, active = well fitted cell-killing curve with a large enough effect; inconclusive = small, poorly fitted or top-dose-only effect, or effect the other way; inactive = no such curve, though single readings can be large or run the other way.
assay-readout: outcome

Example entries begin here.
CCCCCCCN(CC)CCCC(O)c1ccc(NS(C)(=O)=O)cc1 (stereo not given) | inactive
CC#CCn1c(N2CCC[C@@H](N)C2)nc2c1c(=O)n(Cc1nc(C)c3ccccc3n1)c(=O)n2C | inactive
COc1cc(C)c(C=CC(C)=CC=CC(C)=CC(=O)O)c(C)c1C | inactive
CC1(C)OC2CC3C4CC(F)C5=CC(=O)C=CC5(C)C4C(O)CC3(C)[C@]2(C(=O)CO)O1 (stereo not given in full) | inactive

We next turn to a different molecule, shown below.
-- ask Requested read-out: outcome. Entry: C[C@H]1COC2=C1C(=O)C(=O)c1c2ccc2c1CCCC2(C)C
-- reply inactive

----------
test-description: Viability qHTS for spleen associated tyrosine kinase inhibitor (SYKi) naive MV4-11 cells (AID 1963823); further: nearly all actives have a fitted effect of over 40% in size
settings: MV4-11 AML viability, CellTiter-Glo luminescence, 72 h; series mostly up to 45 µM
Records with an inconclusive call do not appear. Calls of active or inactive are those of the source. Calls follow the shape of the dose curve; as a rule, active = well fitted cell-killing curve with a large enough effect; inconclusive = small, poorly fitted or top-dose-only effect, or effect the other way; inactive = no such curve, though single readings can be large or run the other way.
assay-readout: viability (% of control)

-- ask Requested read-out: viability (% of control). Entry: C/C=C(\C)C(=O)OC[C@H]1O[C@@H](O[C@H]2[C@@H](O[C@H]3O[C@H](CO)[C@@H](O)[C@H](O)[C@H]3O[C@@H]3O[C@H](CO)[C@@H](O)[C@H](O)[C@H]3O)O[C@H](COC(=O)/C(C)=C/C)[C@@H](O)[C@@H]2O)[C@H](O)[C@@H](O)[C@@H]1O
-- reply 81.8% [at 9.25 µM] (inactive)

-- ask Requested read-out: viability (% of control). Entry: CC1(C)CC2C3=CCC4C5(C)CCC(OC6OC(C(=O)O)C(O)C(O)C6OC6OC(CO)C(O)C(O)C6OC6OC(CO)C(O)C(O)C6O)C(C)(CO)C5CCC4(C)C3(C)CCC2(C)C(OC2OCC(O)C(OC3OC(CO)C(O)C(O)C3O)C2O)C1O (centres undefined)
-- reply 96.2% [at 9.25 µM] (inactive)

-- ask Requested read-out: viability (% of control). Entry: CC1(C)CC[C@]2(C(=O)O[C@@H]3O[C@H](CO)[C@@H](O)[C@H](O)[C@H]3O)CC[C@]3(C)C(=CCC4[C@@]5(C)CC[C@H](O[C@@H]6O[C@H](C(=O)O)[C@@H](O[C@@H]7O[C@H](CO)[C@@H](O)[C@H](O)[C@H]7O)[C@H](O)[C@H]6O)C(C)(C)C5CC[C@]43C)C2C1 (some centres undefined)
-- reply 78.7% [at 9.25 µM] (inactive)

-- ask Requested read-out: viability (% of control). Entry: C=C(C)[C@@H](C)[C@H]1O[C@]23C[C@]4(CO2)C(CCC2[C@@]5(C)CC[C@H](O[C@@H]6OC[C@H](O)[C@H](O[C@@H]7O[C@H](CO)[C@@H](O)[C@H](O)[C@H]7O)[C@H]6O[C@@H]6O[C@@H](CO)[C@H](O)[C@H]6O)C(C)(C)C5CC[C@]24C)C3[C@@](C)(O)[C@@H]1OC(C)=O (some centres undefined)
-- reply 73.4% [at 9.25 µM] (inactive)
